From: ChEMBL document CHEMBL3120083

System: Hepatocyte
Test Summary: Intrinsic clearance in human hepatocytes assessed per 10^6 cells
Format: ADME, cell-based
A collection of compounds and their measured CLH
Field: numeric (uL/min/10^6 cells). Do not append units.

Consider the following illustrative entries.
[[record]]
sample_smiles = "COc1c(C(C)(C)C)cc(-n2ccc(=O)[nH]c2=O)c2ncc(-c3ccc(NS(C)(=O)=O)cc3)cc12"
obs_value = 7.9

[[record]]
sample_smiles = "COc1c(C2(C(F)F)CC2)cc(-n2ccc(=O)[nH]c2=O)c2ncc(-c3ccc(NS(C)(=O)=O)cc3)cc12"
obs_value = 0.1

[[record]]
sample_smiles = "COc1c(CC(F)(F)F)cc(-n2ccc(=O)[nH]c2=O)c2ncc(-c3ccc(NS(C)(=O)=O)cc3)cc12"
obs_value = 0.8


Query compound follows.
**Q:** Answer briefly: CLH recorded on Hepatocyte for "COc1c(C(F)(F)F)cc(-n2ccc(=O)[nH]c2=O)c2ncc(-c3ccc(NS(C)(=O)=O)cc3)cc12"
**A:** 1.5
